# System: 996289-038-R-J1-PDC spheroid viability
# Assay: Anticancer human tumor 996289-038-R-J1-PDC patient-derived colon adenocarcinoma cell line growth inhibition [PI3K]
# Experimental conditions: second compound 0.316 µM; first compound 3.16 µM; stronger effect = lower value; spheroids with HUVEC and MSC
Quick rule for you: viability, T/C under 70% gets Criterion met, anything else gets Criterion not met.

{"Compound": "C[C@@H](NC(=O)c1ncnc(N)c1Cl)c1ncc(C(=O)Nc2cc(C(F)(F)F)c(Cl)cn2)s1 + CC(Nc1ccc2c(c1)OCCn1cc(N3C(=O)OCC3C(F)F)nc1-2)C(N)=O", "Category label": "Criterion not met"}
{"Compound": "CCCS(=O)(=O)Nc1ccc(F)c(C(=O)c2c[nH]c3ncc(-c4ccc(Cl)cc4)cc23)c1F + COc1c(OCCCN2CCOCC2)ccc2c3n(c(=NC(=O)c4cnc(N)nc4)nc12)CCN3", "Category label": "Criterion met"}
{"Compound": "CC1(C)CCC(Nc2ncc(C(F)(F)F)c(-c3c[nH]c4c(P(C)(C)=O)c(C#N)ccc34)n2)CN1 (stereo not given) + COc1c(OCCCN2CCOCC2)ccc2c3n(c(=NC(=O)c4cnc(N)nc4)nc12)CCN3", "Category label": "Criterion met"}
{"Compound": "C[C@@H](NC(=O)c1ncnc(N)c1Cl)c1ncc(C(=O)Nc2cc(C(F)(F)F)c(Cl)cn2)s1 + COc1c(OCCCN2CCOCC2)ccc2c3n(c(=NC(=O)c4cnc(N)nc4)nc12)CCN3", "Category label": "Criterion met"}

---

# Test system: 996289-038-R-J1-PDC spheroid viability
# Assay: Anticancer human tumor 996289-038-R-J1-PDC cell line growth inhibition [PI3K];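 further: luminescence used as a proxy for viable cell amount; spheroids exposed to compounds for seven days before viability read; percent viability relative to DMSO vehicle control as 100%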
# Experimental conditions: second compound 1 µM; first compound 10 µM; stronger effect = lower value; spheroids with HUVEC and MSC
# From the text: Combinatorial screen of targeted agents with the PI3K inhibitors inavolisib, alpelisib, duvelisib, and copanlisib in multi-cell type tumor spheroids A high-throughput screen of multi-cell type tumor spheroids was designed to identify active combinations of targeted small molecules and PI3K pathway inhibitors. […] Compounds. […] If the clinical Cmax for an agent had not been determined, the highest concentration tested was 10 microM. […]
Quick rule for you: viability, T/C under 20% gets fulfilled, anything else gets not fulfilled.

{"Compound": "CC1(C)CCC(Nc2ncc(C(F)(F)F)c(-c3c[nH]c4c(P(C)(C)=O)c(C#N)ccc34)n2)CN1 (stereo not given) + CC(Nc1ncnc2nc[nH]c12)c1cc2cccc(Cl)c2c(=O)n1-c1ccccc1", "Category label": "fulfilled"}
{"Compound": "CC1(C)CCC(Nc2ncc(C(F)(F)F)c(-c3c[nH]c4c(P(C)(C)=O)c(C#N)ccc34)n2)CN1 (stereo not given) + COc1c(OCCCN2CCOCC2)ccc2c3n(c(=NC(=O)c4cnc(N)nc4)nc12)CCN3", "Category label": "fulfilled"}
{"Compound": "C[C@@H](NC(=O)c1ncnc(N)c1Cl)c1ncc(C(=O)Nc2cc(C(F)(F)F)c(Cl)cn2)s1 + CC(Nc1ncnc2nc[nH]c12)c1cc2cccc(Cl)c2c(=O)n1-c1ccccc1", "Category label": "not fulfilled"}
{"Compound": "C#Cc1c(F)ccc2cc(O)cc(-c3ncc4c(N5CC6CCC(C5)N6)nc(OCC56CCCN5CC(F)C6)nc4c3F)c12 (stereo not given) + COc1c(OCCCN2CCOCC2)ccc2c3n(c(=NC(=O)c4cnc(N)nc4)nc12)CCN3", "Category label": "fulfilled"}
{"Compound": "C#Cc1c(F)ccc2cc(O)cc(-c3ncc4c(N5CC6CCC(C5)N6)nc(OCC56CCCN5CC(F)C6)nc4c3F)c12 (stereo not given) + Cc1nc(NC(=O)N2CCCC2C(N)=O)sc1-c1ccnc(C(C)(C)C(F)(F)F)c1", "Category label": "not fulfilled"}

---

# System: 996289-038-R-J1-PDC spheroid viability
# Assay: Anticancer human tumor 996289-038-R-J1-PDC cell line growth inhibition [PI3K];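 further: luminescence used as a proxy for viable cell amount; spheroids exposed to compounds for seven days before viability read; percent viability relative to DMSO vehicle control as 100%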
# Experimental conditions: second compound 0.01 µM; first compound 0.000316 µM; stronger effect = lower value; spheroids with HUVEC and MSC
Property measured: viability, T/C (%)

{"Compound": "CC(=O)c1c(C)c2cnc(Nc3ccc(N4CCNCC4)cn3)nc2n(C2CCCC2)c1=O + CC(Nc1ccc2c(c1)OCCn1cc(N3C(=O)OCC3C(F)F)nc1-2)C(N)=O", "Target under test": "996289-038-R-J1-PDC spheroid viability", "Property measured": "viability, T/C", "Observed value": 105}
{"Compound": "CC(=O)c1c(C)c2cnc(Nc3ccc(N4CCNCC4)cn3)nc2n(C2CCCC2)c1=O + COc1c(OCCCN2CCOCC2)ccc2c3n(c(=NC(=O)c4cnc(N)nc4)nc12)CCN3", "Target under test": "996289-038-R-J1-PDC spheroid viability", "Property measured": "viability, T/C", "Observed value": 89.1}
{"Compound": "Cn1ncnc1[C@H]1c2n[nH]c(=O)c3cc(F)cc(c23)N[C@@H]1c1ccc(F)cc1 + COc1c(OCCCN2CCOCC2)ccc2c3n(c(=NC(=O)c4cnc(N)nc4)nc12)CCN3", "Target under test": "996289-038-R-J1-PDC spheroid viability", "Property measured": "viability, T/C", "Observed value": 97.7}
{"Compound": "CC(C)n1nc(-c2ccc3oc(N)nc3c2)c2c(N)ncnc21 + COc1c(OCCCN2CCOCC2)ccc2c3n(c(=NC(=O)c4cnc(N)nc4)nc12)CCN3", "Target under test": "996289-038-R-J1-PDC spheroid viability", "Property measured": "viability, T/C", "Observed value": 92.1}
{"Compound": "Cn1ncnc1[C@H]1c2n[nH]c(=O)c3cc(F)cc(c23)N[C@@H]1c1ccc(F)cc1 + CC(Nc1ccc2c(c1)OCCn1cc(N3C(=O)OCC3C(F)F)nc1-2)C(N)=O", "Target under test": "996289-038-R-J1-PDC spheroid viability", "Property measured": "viability, T/C", "Observed value": 103}
{"Compound": "CC(C)n1nc(-c2ccc3oc(N)nc3c2)c2c(N)ncnc21 + CC(Nc1ccc2c(c1)OCCn1cc(N3C(=O)OCC3C(F)F)nc1-2)C(N)=O", "Target under test": "996289-038-R-J1-PDC spheroid viability", "Property measured": "viability, T/C", "Observed value": 94.8}

---

Overview of reported viability, T/C across a group of compounds:
# Test system: 996289-038-R-J1-PDC spheroid viability
# Assay: Anticancer human tumor 996289-038-R-J1-PDC cell line growth inhibition [PI3K];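 further: luminescence used as a proxy for viable cell amount; spheroids exposed to compounds for seven days before viability read; percent viability relative to DMSO vehicle control as 100%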
# Experimental conditions: second compound 10 µM; first compound 0.1 µM; stronger effect = lower value; spheroids with HUVEC and MSC
Property measured: viability, T/C (%)

{"Compound": "CCN1CCN(Cc2ccc(Nc3ncc(F)c(-c4cc(F)c5nc(C)n(C(C)C)c5c4)n3)nc2)CC1 + CC(Nc1ncnc2nc[nH]c12)c1cc2cccc(Cl)c2c(=O)n1-c1ccccc1", "Target under test": "996289-038-R-J1-PDC spheroid viability", "Observed value": 74.3}
{"Compound": "CCCS(=O)(=O)Nc1ccc(F)c(C(=O)c2c[nH]c3ncc(-c4ccc(Cl)cc4)cc23)c1F + CC(Nc1ncnc2nc[nH]c12)c1cc2cccc(Cl)c2c(=O)n1-c1ccccc1", "Target under test": "996289-038-R-J1-PDC spheroid viability", "Observed value": 87.8}
{"Compound": "C[C@@H](NC(=O)c1ncnc(N)c1Cl)c1ncc(C(=O)Nc2cc(C(F)(F)F)c(Cl)cn2)s1 + CC(Nc1ncnc2nc[nH]c12)c1cc2cccc(Cl)c2c(=O)n1-c1ccccc1", "Target under test": "996289-038-R-J1-PDC spheroid viability", "Observed value": 102}
{"Compound": "CC1(C)CCC(Nc2ncc(C(F)(F)F)c(-c3c[nH]c4c(P(C)(C)=O)c(C#N)ccc34)n2)CN1 (configuration not stated) + CC(Nc1ncnc2nc[nH]c12)c1cc2cccc(Cl)c2c(=O)n1-c1ccccc1", "Target under test": "996289-038-R-J1-PDC spheroid viability", "Observed value": 74.5}
{"Compound": "CC(=O)c1c(C)c2cnc(Nc3ccc(N4CCNCC4)cn3)nc2n(C2CCCC2)c1=O + CC(Nc1ncnc2nc[nH]c12)c1cc2cccc(Cl)c2c(=O)n1-c1ccccc1", "Target under test": "996289-038-R-J1-PDC spheroid viability", "Observed value": 72.7}
{"Compound": "CC(C)n1nc(-c2ccc3oc(N)nc3c2)c2c(N)ncnc21 + CC(Nc1ncnc2nc[nH]c12)c1cc2cccc(Cl)c2c(=O)n1-c1ccccc1", "Target under test": "996289-038-R-J1-PDC spheroid viability", "Observed value": 37.2}
{"Compound": "CC1(C)CCC(Nc2ncc(C(F)(F)F)c(-c3c[nH]c4c(P(C)(C)=O)c(C#N)ccc34)n2)CN1 (configuration not stated) + Cc1nc(NC(=O)N2CCCC2C(N)=O)sc1-c1ccnc(C(C)(C)C(F)(F)F)c1", "Target under test": "996289-038-R-J1-PDC spheroid viability", "Observed value": 46}
{"Compound": "CC(C)NCC(C(=O)N1CCN(c2ncnc3c2C(C)CC3O)CC1)c1ccc(Cl)cc1 (configuration not stated) + Cc1nc(NC(=O)N2CCCC2C(N)=O)sc1-c1ccnc(C(C)(C)C(F)(F)F)c1", "Target under test": "996289-038-R-J1-PDC spheroid viability", "Observed value": 35.9}
{"Compound": "Cn1ncc(Cl)c1-c1cc(C(=O)NC(CN)Cc2cccc(F)c2)sc1Cl (configuration not stated) + Cc1nc(NC(=O)N2CCCC2C(N)=O)sc1-c1ccnc(C(C)(C)C(F)(F)F)c1", "Target under test": "996289-038-R-J1-PDC spheroid viability", "Observed value": 36.4}
{"Compound": "Cn1nccc1Nc1nccc(-c2ccn(C(CO)c3ccc(Cl)c(F)c3)c(=O)c2)n1 (configuration not stated) + Cc1nc(NC(=O)N2CCCC2C(N)=O)sc1-c1ccnc(C(C)(C)C(F)(F)F)c1", "Target under test": "996289-038-R-J1-PDC spheroid viability", "Observed value": 40.6}
{"Compound": "C[C@@H](NC(=O)c1ncnc(N)c1Cl)c1ncc(C(=O)Nc2cc(C(F)(F)F)c(Cl)cn2)s1 + Cc1nc(NC(=O)N2CCCC2C(N)=O)sc1-c1ccnc(C(C)(C)C(F)(F)F)c1", "Target under test": "996289-038-R-J1-PDC spheroid viability", "Observed value": 47.1}
{"Compound": "CNC(=O)c1ccc(N2C(=S)N(c3ccc(C#N)c(C(F)(F)F)c3)C(=O)C2(C)C)cc1F + CC(Nc1ncnc2nc[nH]c12)c1cc2cccc(Cl)c2c(=O)n1-c1ccccc1", "Target under test": "996289-038-R-J1-PDC spheroid viability", "Observed value": 101}
{"Compound": "CNC(=O)c1ccc(N2C(=S)N(c3ccc(C#N)c(C(F)(F)F)c3)C(=O)C2(C)C)cc1F + Cc1nc(NC(=O)N2CCCC2C(N)=O)sc1-c1ccnc(C(C)(C)C(F)(F)F)c1", "Target under test": "996289-038-R-J1-PDC spheroid viability", "Observed value": 46.9}
{"Compound": "CC(Cn1ccc(-c2ccc(C#N)c(Cl)c2)n1)NC(=O)c1cc(C(C)O)[nH]n1 (configuration not stated) + Cc1nc(NC(=O)N2CCCC2C(N)=O)sc1-c1ccnc(C(C)(C)C(F)(F)F)c1", "Target under test": "996289-038-R-J1-PDC spheroid viability", "Observed value": 43.1}
{"Compound": "CC(=O)c1c(C)c2cnc(Nc3ccc(N4CCNCC4)cn3)nc2n(C2CCCC2)c1=O + Cc1nc(NC(=O)N2CCCC2C(N)=O)sc1-c1ccnc(C(C)(C)C(F)(F)F)c1", "Target under test": "996289-038-R-J1-PDC spheroid viability", "Observed value": 36.8}
{"Compound": "CCCS(=O)(=O)Nc1ccc(F)c(C(=O)c2c[nH]c3ncc(-c4ccc(Cl)cc4)cc23)c1F + Cc1nc(NC(=O)N2CCCC2C(N)=O)sc1-c1ccnc(C(C)(C)C(F)(F)F)c1", "Target under test": "996289-038-R-J1-PDC spheroid viability", "Observed value": 44.8}
{"Compound": "C#Cc1c(F)ccc2cc(O)cc(-c3ncc4c(N5CC6CCC(C5)N6)nc(OCC56CCCN5CC(F)C6)nc4c3F)c12 (configuration not stated) + CC(Nc1ncnc2nc[nH]c12)c1cc2cccc(Cl)c2c(=O)n1-c1ccccc1", "Target under test": "996289-038-R-J1-PDC spheroid viability", "Observed value": 74}
{"Compound": "C=CC(=O)N1CCN(c2nc(=O)n(-c3c(C)ccnc3C(C)C)c3nc(-c4c(O)cccc4F)c(F)cc23)C(C)C1 (configuration not stated) + Cc1nc(NC(=O)N2CCCC2C(N)=O)sc1-c1ccnc(C(C)(C)C(F)(F)F)c1", "Target under test": "996289-038-R-J1-PDC spheroid viability", "Observed value": 50.7}
{"Compound": "CCN1CCN(Cc2ccc(Nc3ncc(F)c(-c4cc(F)c5nc(C)n(C(C)C)c5c4)n3)nc2)CC1 + Cc1nc(NC(=O)N2CCCC2C(N)=O)sc1-c1ccnc(C(C)(C)C(F)(F)F)c1", "Target under test": "996289-038-R-J1-PDC spheroid viability", "Observed value": 33.6}
{"Compound": "CC(Cn1ccc(-c2ccc(C#N)c(Cl)c2)n1)NC(=O)c1cc(C(C)O)[nH]n1 (configuration not stated) + CC(Nc1ncnc2nc[nH]c12)c1cc2cccc(Cl)c2c(=O)n1-c1ccccc1", "Target under test": "996289-038-R-J1-PDC spheroid viability", "Observed value": 81.8}
{"Compound": "CC(C)n1nc(-c2ccc3oc(N)nc3c2)c2c(N)ncnc21 + Cc1nc(NC(=O)N2CCCC2C(N)=O)sc1-c1ccnc(C(C)(C)C(F)(F)F)c1", "Target under test": "996289-038-R-J1-PDC spheroid viability", "Observed value": 14.2}
{"Compound": "C=CC(=O)N1CCN(c2nc(=O)n(-c3c(C)ccnc3C(C)C)c3nc(-c4c(O)cccc4F)c(F)cc23)C(C)C1 (configuration not stated) + CC(Nc1ncnc2nc[nH]c12)c1cc2cccc(Cl)c2c(=O)n1-c1ccccc1", "Target under test": "996289-038-R-J1-PDC spheroid viability", "Observed value": 88.4}

Reference source: PubChem BioAssay AID1963965
